Provide the reported inhibition at 20 µM of each item.
MEASUREMENT_TARGET: KRas G12D/Q61H double mutant (Homo sapiens (Human), UniProt P01116, G12D/Q61H)
Sequence (P01116-2 other isoform, or with tags, fused parts or gaps G12D/Q61H): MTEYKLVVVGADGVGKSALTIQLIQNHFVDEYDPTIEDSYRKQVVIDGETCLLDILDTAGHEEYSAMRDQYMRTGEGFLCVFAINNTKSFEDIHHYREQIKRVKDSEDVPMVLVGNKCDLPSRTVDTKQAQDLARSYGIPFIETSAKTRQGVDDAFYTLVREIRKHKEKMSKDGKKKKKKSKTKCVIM
ASSAY_SUMMARY: Ras GTP binding domain inhibition assay (labeled GTP)
DETAILS: 20 μM compound; read-out: % Inhibition at 20 μM KRas G12D Q61H

In: Would you mind telling me what inhibition at 20 µM value was observed for Oc1nc(-c2ccccn2)nc2c(-c3ccc(OC(F)F)cc3F)csc12 [drawing 2876] ?
Out: 51 to 75%

In: Would you mind telling me what inhibition at 20 µM value was observed for COC(=O)c1cccc(CN2CCN(c3cccc(C(F)(F)F)c3)CC2)c1 ?
Out: 25 to 50%

In: Would you mind telling me what inhibition at 20 µM value was observed for CCN(Cc1ccc(S(=O)(=O)N(C)C)o1)c1ccccc1 ?
Out: 25 to 50%

In: Would you mind telling me what inhibition at 20 µM value was observed for Cc1cc(C)n(CCCNC(=O)c2cc(S(=O)(=O)N3CCCCC3)ccc2N2CCOCC2)n1 ?
Out: 25 to 50%

In: Would you mind telling me what inhibition at 20 µM value was observed for O=S(=O)(CCc1ccccc1)N1CCCc2c(O)nc(-c3ccccn3)nc21 [drawing 2651] ?
Out: 0%

###

MEASUREMENT_TARGET: Rho-A (Homo sapiens (Human))
Sequence (P61586 whole entry): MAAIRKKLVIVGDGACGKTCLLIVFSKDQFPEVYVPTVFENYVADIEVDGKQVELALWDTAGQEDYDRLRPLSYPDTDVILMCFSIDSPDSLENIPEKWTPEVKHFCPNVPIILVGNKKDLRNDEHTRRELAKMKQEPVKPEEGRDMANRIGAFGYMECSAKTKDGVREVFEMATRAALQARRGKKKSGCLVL
ASSAY_SUMMARY: Rho inhibition assay (labeled GTP)
Format: binding
DETAILS: read-out: Rho-A % Inh.
TEST_READOUT: inhibition at 20 µM

In: Would you mind telling me what inhibition at 20 µM value was observed for COc1cnc(C(C)(C)N)nc1O [drawing 3810] ?
Out: 0%

In: Would you mind telling me what inhibition at 20 µM value was observed for COc1ccc(N2CCN(C(=O)c3csc4c(O)nc(-c5ccccn5)nc34)CC2)cc1O [drawing 3691] ?
Out: 76 to 100%

In: Would you mind telling me what inhibition at 20 µM value was observed for O=c1[nH]c(-c2ccccn2)nc2c([C@@H]3O[C@H](CO)[C@@H](O)[C@H]3O)csc12 [drawing 3845] ?
Out: 51 to 75%

In: Would you mind telling me what inhibition at 20 µM value was observed for Cn1cnc(-c2nc(O)c3sc(-c4ccncc4)c(-c4ccccc4)c3n2)c1 [drawing 3867] ?
Out: 25 to 50%

In: Would you mind telling me what inhibition at 20 µM value was observed for COc1cccc(CN2CCN(C(=O)c3csc4c(O)nc(-c5ccccn5)nc34)CC2)c1 [drawing 3652] ?
Out: 76 to 100%

In: Would you mind telling me what inhibition at 20 µM value was observed for Oc1nc(-c2ccccn2)nc2c(-c3cncnc3)csc12 [drawing 3823] ?
Out: 1 to 25%

In: Would you mind telling me what inhibition at 20 µM value was observed for COCCNc1nc(-c2nccn2C)nc2sc(-c3ccccc3)c(-c3ccccc3Cl)c12 [drawing 3898] ?
Out: 25 to 50%

In: Would you mind telling me what inhibition at 20 µM value was observed for COCCNc1nc(-c2cn(C)cn2)nc2sc(-c3ccncc3)c(-c3ccccc3)c12 [drawing 3848] ?
Out: 76 to 100%

###

Provide the reported inhibition at 20 µM of each item.
MEASUREMENT_TARGET: KRas Q61H mutant (Homo sapiens (Human), UniProt P01116, Q61H)
Sequence (P01116-2 other isoform, or with tags, fused parts or gaps Q61H): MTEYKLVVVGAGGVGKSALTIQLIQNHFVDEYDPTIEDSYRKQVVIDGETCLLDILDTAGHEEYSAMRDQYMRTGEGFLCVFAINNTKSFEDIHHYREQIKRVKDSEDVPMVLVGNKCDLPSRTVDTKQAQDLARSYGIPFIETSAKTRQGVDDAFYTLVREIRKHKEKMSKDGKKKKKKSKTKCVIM
ASSAY_SUMMARY: Ras GTP binding domain inhibition assay (labeled GTP)
DETAILS: 20 μM compound; read-out: % Inhibition at 20 μM KRas Q61H

In: Would you mind telling me what inhibition at 20 µM value was observed for COCCCCNC(=O)c1csc2nc(-c3ccccn3)nc(N(CCOC)CCOC)c12 [drawing 2793] ?
Out: 51 to 75%

In: Would you mind telling me what inhibition at 20 µM value was observed for COCc1ccc(-c2csc3c(O)nc(-c4ccccn4)nc23)cc1F [drawing 2846] ?
Out: 51 to 75%

In: Would you mind telling me what inhibition at 20 µM value was observed for O=C(c1csc2c(O)nc(-c3ccccn3)nc12)N1CCOC(c2cccc(Cl)c2)C1 (centres unmarked) [drawing 2770] ?
Out: 51 to 75%

In: Would you mind telling me what inhibition at 20 µM value was observed for Nc1nc(-c2ccccn2)nc2ccsc12 [drawing 2834] ?
Out: 51 to 75%

In: Would you mind telling me what inhibition at 20 µM value was observed for Oc1nc(-c2ccccn2)nc2c(-c3ccc(OC4CCCCC4)cc3)csc12 [drawing 2887] ?
Out: 25 to 50%

###

Provide the reported inhibition at 20 µM of each item.
MEASUREMENT_TARGET: Rac-1 (Homo sapiens (Human), UniProt P63000)
ASSAY_SUMMARY: Rac inhibition assay (labeled GTP)
Format: binding
DETAILS: read-out: Rac-1 % Inh.

In: Would you mind telling me what inhibition at 20 µM value was observed for O=C(c1csc2c(O)nc(-c3ccccn3)nc12)N1CCOC(c2ccccc2)C1 (centres unmarked) [drawing 3655] ?
Out: 25 to 50%

In: Would you mind telling me what inhibition at 20 µM value was observed for COc1cccc(CN2CCN(C(=O)c3csc4c(O)nc(-c5ccccn5)nc34)CC2)c1 [drawing 3652] ?
Out: 76 to 100%

In: Would you mind telling me what inhibition at 20 µM value was observed for O=C(c1csc2c(O)nc(-c3ccccn3)nc12)N1CCC(c2ccncc2)C1 (centres unmarked) [drawing 3711] ?
Out: 51 to 75%

In: Would you mind telling me what inhibition at 20 µM value was observed for COc1ccc(CCNC(=O)c2csc3nc(-c4ccccn4)nc(N4CCOCC4)c23)cn1 [drawing 3634] ?
Out: 51 to 75%

In: Would you mind telling me what inhibition at 20 µM value was observed for CN(CCc1cccc(C#N)c1)C(=O)c1csc2nc(-c3ccccn3)nc(N3CCOCC3)c12 [drawing 3677] ?
Out: 76 to 100%

In: Would you mind telling me what inhibition at 20 µM value was observed for COCCNc1nc(-c2cccc(N)n2)nc2sc(-c3ccccc3)c(-c3ccccc3)c12 [drawing 3909] ?
Out: 0%

In: Would you mind telling me what inhibition at 20 µM value was observed for COc1cc(CCN(C)C(=O)c2csc3nc(-c4ccccn4)nc(N4CCOCC4)c23)ccn1 [drawing 3670] ?
Out: 76 to 100%

In: Would you mind telling me what inhibition at 20 µM value was observed for COc1nc(-c2ccccn2)nc2c(C3CCCC3)csc12 [drawing 3789] ?
Out: 76 to 100%

###

Test system: MIA-PACA2 pancreatic cancer cell lines
ASSAY_SUMMARY: Cell proliferation assay (CellTiter 96 AQueous One)
Assay type: cell-based
DETAILS: Homo sapiens, MIA PaCa-2; at 30 μM, MIA-PACA2
Provide the reported inhibition at 30 µM of each item.

In: Would you mind telling me what inhibition at 30 µM value was observed for COc1cccc(C(=O)Nc2nc(-c3ccccn3)cs2)c1 [drawing 1487] ?
Out: 76 to 100%

In: Would you mind telling me what inhibition at 30 µM value was observed for O=C(c1csc2c(O)nc(-c3ccccn3)nc12)N1CCOC(c2cccc(F)c2)C1 (stereo not drawn) [drawing 1635] ?
Out: 76 to 100%

In: Would you mind telling me what inhibition at 30 µM value was observed for OCCOCCNc1nc(-c2ccccn2)nc2scc(-c3ccccc3)c12 [drawing 1515] ?
Out: 76 to 100%

In: Would you mind telling me what inhibition at 30 µM value was observed for Oc1nc(-c2ccccn2)nc2c1ncn2-c1ccccc1 [drawing 1583] ?
Out: 25 to 50%

In: Would you mind telling me what inhibition at 30 µM value was observed for O=C1CN(c2nc(-c3ccccn3)nc3scc(-c4ccccc4)c23)CCN1 [drawing 1593] ?
Out: 1 to 25%

In: Would you mind telling me what inhibition at 30 µM value was observed for O=C(Nc1nnc(-c2ccccn2)[nH]1)c1ccc2ccccc2n1 [drawing 1401] ?
Out: 25 to 50%

In: Would you mind telling me what inhibition at 30 µM value was observed for O=C(c1csc2c(O)nc(-c3ccccn3)nc12)N1CCC(N2CCOCC2)CC1 [drawing 1567] ?
Out: 1 to 25%

In: Would you mind telling me what inhibition at 30 µM value was observed for CC(COCc1ccccc1)C(=O)Nc1nnc(-c2ccccn2)[nH]1 (stereo not drawn) [drawing 1429] ?
Out: 25 to 50%

In: Would you mind telling me what inhibition at 30 µM value was observed for Cc1cc2c(=O)nc(-c3cc(OCC(F)F)ccn3)[nH]c2s1 [drawing 1500] ?
Out: 76 to 100%

In: Would you mind telling me what inhibition at 30 µM value was observed for N#Cc1ccc(N2CCN(C(=O)c3csc4c(O)nc(-c5ccccn5)nc34)CC2)cc1 [drawing 1650] ?
Out: 25 to 50%

In: Would you mind telling me what inhibition at 30 µM value was observed for CN(CC(=O)N1CCOCC1)c1nc(-c2ccccn2)nc2scc(-c3ccccc3)c12 [drawing 1609] ?
Out: 51 to 75%

In: Would you mind telling me what inhibition at 30 µM value was observed for Oc1nc(-c2ccccn2)nc2c(-c3ccc(CN4CCOCC4)cc3)csc12 [drawing 1758] ?
Out: 76 to 100%

In: Would you mind telling me what inhibition at 30 µM value was observed for CC1(N)CCN(C(=O)c2csc3c(O)nc(-c4ccccn4)nc23)CC1 [drawing 1573] ?
Out: 1 to 25%

In: Would you mind telling me what inhibition at 30 µM value was observed for COc1ccnc(-c2nc(O)c3c(C#N)csc3n2)c1 [drawing 1675] ?
Out: 76 to 100%

In: Would you mind telling me what inhibition at 30 µM value was observed for O=C(Cc1c[nH]c2ccccc12)Nc1nnc(-c2ccccn2)[nH]1 [drawing 1387] ?
Out: 1 to 25%

In: Would you mind telling me what inhibition at 30 µM value was observed for COc1ccccc1C1CN(C(=O)c2csc3c(O)nc(-c4ccccn4)nc23)CCN1 (stereo not drawn) [drawing 1665] ?
Out: 76 to 100%

In: Would you mind telling me what inhibition at 30 µM value was observed for COCc1ccc(-c2csc3c(O)nc(-c4ccccn4)nc23)cc1F [drawing 1722] ?
Out: 76 to 100%

In: Would you mind telling me what inhibition at 30 µM value was observed for CC(Oc1ccccc1C#N)C(=O)Nc1nnc(-c2ccccn2)[nH]1 (stereo not drawn) [drawing 1423] ?
Out: 76 to 100%
